Values were extracted from the supplement of paper PMC9112550.

system: Escherichia coli TOP10; assay: shrunken log2 fold change of peptide-encoding DNA abundance (4.5 h post-induction vs induction); higher = less antimicrobial activity (less host growth inhibition); details: time post-induction: 4.5 h; library: site-saturation at positions 5, 18, 19, 20;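 further: peptides expressed intracellularly from a pBAD plasmid library in pooled LB shake-flask culture, induced with 0.3% L-arabinose, DNA abundance read by NGS, three biological replicates, DESeq2 with apeglm shrinkage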
Consider the following sequences; for each one, report its shrunken log2 fold change.
Give bare numbers.

Example results:
[[record]]
biosequence = "RRIRTRPPRLPRPRPRPCFDPRP"
study_system = "Escherichia coli TOP10"
property_measured = "shrunken log2 fold change"
numeric_value = -0.0899

[[record]]
biosequence = "RRIRYRPPRLPRPRPRPVGWPRP"
study_system = "Escherichia coli TOP10"
property_measured = "shrunken log2 fold change"
numeric_value = 0.344

[[record]]
biosequence = "RRIRLRPPRLPRPRPRPYKIPRP"
study_system = "Escherichia coli TOP10"
property_measured = "shrunken log2 fold change"
numeric_value = -0.0766

[[record]]
biosequence = "RRIRGRPPRLPRPRPRPWVKPRP"
study_system = "Escherichia coli TOP10"
property_measured = "shrunken log2 fold change"
numeric_value = 0.0642

[[record]]
biosequence = "RRIRTRPPRLPRPRPRPSRLPRP"
study_system = "Escherichia coli TOP10"
property_measured = "shrunken log2 fold change"
numeric_value = 0.0405


Field: shrunken log2 fold change. Fill in for each record below.
1. RRIRPRPPRLPRPRPRPAWDPRP
2. RRIRSRPPRLPRPRPRPPQQPRP
3. RRIRKRPPRLPRPRPRPRKGPRP
4. RRIRMRPPRLPRPRPRPTAVPRP
5. RRIRNRPPRLPRPRPRPYVAPRP
6. RRIRARPPRLPRPRPRPGVWPRP
7. RRIRARPPRLPRPRPRPFVPPRP

Result:
0.431
0.38
-0.0408
1.64
-0.931
1.55
-0.0963

Field: shrunken log2 fold change. Fill in for each record below.
1. RRIRYRPPRLPRPRPRPRYHPRP
2. RRIRGRPPRLPRPRPRPCCWPRP
3. RRIRDRPPRLPRPRPRPKMAPRP
4. RRIRWRPPRLPRPRPRPLEYPRP
5. RRIRVRPPRLPRPRPRPTCEPRP
6. RRIRYRPPRLPRPRPRPLYCPRP

Result:
[-0.922, 0.878, 0.38, -0.152, 0.243, -0.975]

Field: shrunken log2 fold change. Fill in for each record below.
1. RRIRERPPRLPRPRPRPVEIPRP
2. RRIRLRPPRLPRPRPRPVNAPRP
3. RRIRQRPPRLPRPRPRPFDEPRP
4. RRIRQRPPRLPRPRPRPIFMPRP
5. RRIRCRPPRLPRPRPRPMWHPRP
6. RRIRKRPPRLPRPRPRPFGIPRP

Result:
1: -0.0716; 2: 0.0227; 3: -0.153; 4: -0.00126; 5: -0.147; 6: -0.00674

Field: shrunken log2 fold change. Fill in for each record below.
1. RRIRNRPPRLPRPRPRPESQPRP
2. RRIRDRPPRLPRPRPRPQHQPRP
3. RRIRKRPPRLPRPRPRPVPTPRP
4. RRIRMRPPRLPRPRPRPNMHPRP

Result:
1: -0.00881; 2: -0.108; 3: 0.916; 4: -0.0148
